- Tested on: MOLT-14;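 note: ALL cell lines in 384-well plates, five doses spanning 10,000-fold, each plate scaled between vehicle and 100 µmol/L benzalkonium chloride controls, sDSS an adapted area-under-curve metric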
- experiment: selective drug sensitivity score (sDSS, relative to normal bone marrow) (sDSS (score)); higher = more potent and effective on the cell line relative to normal bone marrow cells
- condition-label: 72 h
Outcome: 1 for selective drug sensitivity score of at least 2; 0 for anything lower.

• Cc1cc(OCc2nnc(SC3CCCC3)n2-c2cccnc2)ccc1-c1ccc(S(C)(=O)=O)cc1 [NMS-873] (top concentration 10000 nM) = 1
• CNCc1ccc(-c2[nH]c3cc(F)cc4c3c2CCNC4=O)cc1 [Rucaparib] (top concentration 10000 nM) = 0
• COc1cc2c(cc1OCCCN1CCCC1)N=C(N)C21CCC1 [A-366] (top concentration 25000 nM) = 1
• COc1cc2ncnc(Nc3ccc(F)c(Cl)c3)c2cc1NC(=O)/C=C/CN1CCCCC1 [Dacomitinib] (top concentration 1000 nM) = 0
• Cn1nnc2c(C(N)=O)ncn2c1=O [Temozolomide] (top concentration 100000 nM) = 1
• Nc1cccc2c1CN(C1CCC(=O)NC1=O)C2=O (configuration not stated) [Lenalidomide] (top concentration 100000 nM) = 0
• N#CCNC(=O)c1ccc(-c2ccnc(Nc3ccc(N4CCOCC4)cc3)n2)cc1 [Momelotinib] (top concentration 10000 nM) = 0
